- Assayed target: porcine pancreatic α-amylase (Sus scrofa)
- Sequence (P00690 16-511): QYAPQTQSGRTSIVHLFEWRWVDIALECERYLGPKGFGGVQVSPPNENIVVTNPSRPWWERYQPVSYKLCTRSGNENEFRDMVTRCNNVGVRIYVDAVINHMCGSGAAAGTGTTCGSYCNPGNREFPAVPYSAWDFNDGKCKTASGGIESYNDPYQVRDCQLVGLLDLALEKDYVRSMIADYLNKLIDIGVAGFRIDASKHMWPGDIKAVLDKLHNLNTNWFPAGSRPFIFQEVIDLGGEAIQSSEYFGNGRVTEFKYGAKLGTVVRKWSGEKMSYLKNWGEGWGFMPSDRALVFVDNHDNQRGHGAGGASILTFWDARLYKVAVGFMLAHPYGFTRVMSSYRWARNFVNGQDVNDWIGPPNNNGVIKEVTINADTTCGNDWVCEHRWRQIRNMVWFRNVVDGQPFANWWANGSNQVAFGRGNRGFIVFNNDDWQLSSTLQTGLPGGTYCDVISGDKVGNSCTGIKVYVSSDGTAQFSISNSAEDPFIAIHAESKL
- Protocol: Continuous α-amylase activity assay (starch hydrolysis) by ITC
- Assay type: biochemical
- Test conditions: 100 μM flavan-3-ol, 310 K, initial injection; control 727 ± 103
- Description: Without rebuffering, α-amylase was diluted each day with 0.1 M phosphate buffer/0.04 M NaCl to a final dilution of 1:1000 and stored at 4 °C. […] The release of heat during the conversion of starch was monitored, and calculations were performed using Microsoft Excel software. The detected thermal power is directly proportional to the enzymatic rate (v0) (eq 1 and 2).[40],[41] […]
Quantity kind: ΔRHapp (kcal/mol)

[[record]]
compound = "Oc1cc(O)c2c(c1)O[C@H](c1ccc(O)c(O)c1)[C@H](O)[C@H]2c1c(O)cc(O)c2c1O[C@H](c1ccc(O)c(O)c1)[C@@H](O)C2 [PC B1, procyanidin B1]"
assayed_target = "porcine pancreatic α-amylase (Sus scrofa)"
value = 0.156

[[record]]
compound = "Oc1cc(O)c2c(c1)O[C@H](c1ccc(O)c(O)c1)[C@H](O)[C@H]2c1c(O)cc(O)c2c1O[C@H](c1ccc(O)c(O)c1)[C@H](O)C2 [PC B2, procyanidin B2]"
assayed_target = "porcine pancreatic α-amylase (Sus scrofa)"
value = 0.205

[[record]]
compound = "Oc1cc(O)c2c(c1)O[C@H](c1ccc(O)c(O)c1)[C@H](O)[C@H]2c1c(O)cc(O)c2c1O[C@H](c1ccc(O)c(O)c1)[C@H](O)[C@H]2c1c(O)cc(O)c2c1O[C@H](c1ccc(O)c(O)c1)[C@H](O)C2 [PC C1, procyanidin C1]"
assayed_target = "porcine pancreatic α-amylase (Sus scrofa)"
value = 0.143

[[record]]
compound = "Oc1cc(O)c2c(c1)O[C@H](c1ccc(O)c(O)c1)[C@@H](O)C2 [CAT, (+)-Catechin]"
assayed_target = "porcine pancreatic α-amylase (Sus scrofa)"
value = 0.162

[[record]]
compound = "Oc1cc(O)c2c(c1)O[C@H](c1ccc(O)c(O)c1)[C@H](O)C2 [EC, (−)-Epicatechin]"
assayed_target = "porcine pancreatic α-amylase (Sus scrofa)"
value = 0.195

